Molecular target: human sphingosine-1-phosphate receptor 1 (S1P1) (Homo sapiens, UniProt P21453)
Sequence (P21453 whole entry): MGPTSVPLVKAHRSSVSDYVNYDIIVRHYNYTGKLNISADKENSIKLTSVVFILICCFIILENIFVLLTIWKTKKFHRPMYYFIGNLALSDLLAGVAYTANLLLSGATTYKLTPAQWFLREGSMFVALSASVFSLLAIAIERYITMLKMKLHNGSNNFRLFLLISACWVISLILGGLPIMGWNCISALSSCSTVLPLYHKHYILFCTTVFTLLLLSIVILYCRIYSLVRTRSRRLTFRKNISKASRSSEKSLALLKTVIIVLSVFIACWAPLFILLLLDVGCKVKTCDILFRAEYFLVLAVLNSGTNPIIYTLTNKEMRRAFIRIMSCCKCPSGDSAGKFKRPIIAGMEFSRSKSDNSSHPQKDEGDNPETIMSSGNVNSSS
Assay: Inhibition of cAMP production (HTRF cAMP HiRange), S1P1 CHO-K1 cells
Assay type: cell-based
Settings: CHO-K1; efficacy normalized to maximum efficacy of fingolimod; read-out: hS1P1 CAMP SPAN
In this section we review reported Emax values for a set of molecules.

molecule: CCC1(CC)CC(=O)c2cc(-c3nc(-c4cncc(C(F)(F)F)c4)no3)ccc2O1 [Compound 557]
Emax: > 75%

molecule: CC(C)(CO)n1nnc2cc(-c3noc(-c4ccncc4C(F)(F)F)n3)ccc21 [Compound 626]
Emax: < 75%

molecule: N#Cc1cc(-c2nc(-c3ccc4c(c3)CCC(=O)N4)no2)ccc1NCC(F)(F)F [Compound 472]
Emax: > 75%

molecule: N#Cc1cc(-c2nnc(-c3ccc4[nH]c(=O)oc4c3)o2)ccc1NCCF [Compound 487]
Emax: > 75%

molecule: CC(C)n1nnc2cc(-c3nc(-c4sccc4Cl)co3)ccc21 [Compound 463]
Emax: > 75%

molecule: COc1ccc(-c2nc(-c3ccc4c(ccn4C(C)C)c3)no2)cc1 [Compound 393]
Emax: < 75%

molecule: CC1CC(=O)c2ccc(-c3nc(-c4cccnc4)no3)cc2O1 (stereo not drawn) [Compound 535]
Emax: < 75%

molecule: Cn1ccnc1-c1noc(-c2ccc3c(c2)nnn3CC(C)(C)O)n1 [Compound 567]
Emax: > 75%

molecule: CCC1(CC)C/C(=N\O)c2cc(-c3nc(-c4cccnc4)no3)ccc2O1 [Compound 431]
Emax: > 75%

molecule: N#Cc1cc(-c2nnc(-c3ccc4c(c3)CCC(=O)N4)o2)ccc1NCC(F)F [Compound 477]
Emax: > 75%

molecule: CC(C)n1ccc2nc(-c3nc(-c4ccccc4Br)cs3)ccc21 [Compound 412]
Emax: > 75%

molecule: Cc1ccccc1-c1nc(-c2ccc3c(c2)nnn3CC(C)(C)CO)no1 [Compound 505]
Emax: < 75%

molecule: Cc1ccsc1-c1nc(-c2ccc3c(c2)nnn3CC(C)(C)CO)no1 [Compound 524]
Emax: > 75%

molecule: COc1ccccc1-c1c[nH]c(-c2ccc3c(c2)nnn3C(C)C)c1 [Compound 566]
Emax: < 75%

molecule: CCC1(CC)CC(=O)c2cc(-c3nc(-c4ccnc(NC(C)=O)c4)no3)ccc2O1 [Compound 512]
Emax: > 75%

molecule: CC1(C)Oc2ccc(-c3nc(-c4ccncc4)no3)cc2C1=O [Compound 480]
Emax: > 75%

molecule: CCC1(CC)CC(=O)c2cc(-c3nc(-c4cncc(F)c4)no3)ccc2O1 [Compound 551]
Emax: > 75%

molecule: CC(C)n1ccc2cc(-c3nsc(-c4ccccc4F)n3)ccc21 [Compound 380]
Emax: < 75%
